- SYSTEM_UNDER_TEST: Escherichia coli RNAP (Escherichia coli, UniProt P0A8T7+P0A8V2)
- Sequence (P0A800 whole entry): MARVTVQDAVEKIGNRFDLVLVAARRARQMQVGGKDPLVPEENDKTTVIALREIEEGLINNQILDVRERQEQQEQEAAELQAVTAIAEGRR
- Sequence (P00579 whole entry, further chain): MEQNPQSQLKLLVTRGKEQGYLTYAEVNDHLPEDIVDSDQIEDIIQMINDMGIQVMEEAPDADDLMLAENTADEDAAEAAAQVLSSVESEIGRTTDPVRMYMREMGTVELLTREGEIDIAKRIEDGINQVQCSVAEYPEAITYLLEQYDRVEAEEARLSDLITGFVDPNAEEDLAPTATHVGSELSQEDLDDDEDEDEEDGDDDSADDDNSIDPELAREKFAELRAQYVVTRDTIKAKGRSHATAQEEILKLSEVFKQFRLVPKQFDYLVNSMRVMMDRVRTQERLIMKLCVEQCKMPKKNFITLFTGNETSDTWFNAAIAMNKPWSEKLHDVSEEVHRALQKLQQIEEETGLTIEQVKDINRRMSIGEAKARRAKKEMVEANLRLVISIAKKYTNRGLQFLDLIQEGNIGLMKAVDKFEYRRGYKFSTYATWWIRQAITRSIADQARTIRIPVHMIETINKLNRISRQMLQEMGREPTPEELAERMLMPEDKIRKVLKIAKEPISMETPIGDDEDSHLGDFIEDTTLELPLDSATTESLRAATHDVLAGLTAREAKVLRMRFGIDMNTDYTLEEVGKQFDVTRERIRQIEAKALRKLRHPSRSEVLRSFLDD
- Sequence (P0A8V2 whole entry): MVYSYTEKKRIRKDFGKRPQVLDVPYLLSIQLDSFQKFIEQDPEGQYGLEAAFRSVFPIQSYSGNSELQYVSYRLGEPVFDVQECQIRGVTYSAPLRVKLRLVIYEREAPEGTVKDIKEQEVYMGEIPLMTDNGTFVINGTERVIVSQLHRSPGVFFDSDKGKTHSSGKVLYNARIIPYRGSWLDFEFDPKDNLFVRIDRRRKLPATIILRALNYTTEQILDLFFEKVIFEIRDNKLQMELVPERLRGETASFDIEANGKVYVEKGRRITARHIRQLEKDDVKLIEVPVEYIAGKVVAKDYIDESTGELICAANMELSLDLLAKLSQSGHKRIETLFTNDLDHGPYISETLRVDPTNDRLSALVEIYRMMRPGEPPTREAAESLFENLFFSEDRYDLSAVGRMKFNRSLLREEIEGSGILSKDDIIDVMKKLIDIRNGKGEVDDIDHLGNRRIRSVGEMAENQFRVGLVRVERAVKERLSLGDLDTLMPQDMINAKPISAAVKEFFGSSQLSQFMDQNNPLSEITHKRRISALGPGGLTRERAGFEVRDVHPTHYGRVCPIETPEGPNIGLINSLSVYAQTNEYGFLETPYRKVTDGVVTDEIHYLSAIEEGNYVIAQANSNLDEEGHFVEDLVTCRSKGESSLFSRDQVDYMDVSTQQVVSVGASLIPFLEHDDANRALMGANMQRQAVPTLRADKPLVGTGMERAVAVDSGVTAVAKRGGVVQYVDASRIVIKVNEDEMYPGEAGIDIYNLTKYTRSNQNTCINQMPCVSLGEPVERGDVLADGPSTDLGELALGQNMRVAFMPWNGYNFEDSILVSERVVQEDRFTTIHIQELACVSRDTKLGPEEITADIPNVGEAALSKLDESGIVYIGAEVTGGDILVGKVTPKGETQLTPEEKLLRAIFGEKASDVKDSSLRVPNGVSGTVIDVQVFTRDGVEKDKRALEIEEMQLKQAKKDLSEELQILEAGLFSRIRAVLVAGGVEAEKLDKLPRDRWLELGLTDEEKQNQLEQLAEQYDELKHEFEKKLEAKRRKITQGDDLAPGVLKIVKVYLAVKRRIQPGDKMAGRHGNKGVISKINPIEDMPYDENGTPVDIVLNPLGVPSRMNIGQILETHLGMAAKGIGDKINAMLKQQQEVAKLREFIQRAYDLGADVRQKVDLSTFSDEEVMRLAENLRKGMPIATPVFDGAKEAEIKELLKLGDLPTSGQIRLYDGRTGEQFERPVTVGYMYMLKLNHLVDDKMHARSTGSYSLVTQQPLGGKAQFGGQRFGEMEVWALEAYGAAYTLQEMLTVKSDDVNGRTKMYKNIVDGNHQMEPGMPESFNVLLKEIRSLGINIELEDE
- Sequence (P0A8T7 whole entry): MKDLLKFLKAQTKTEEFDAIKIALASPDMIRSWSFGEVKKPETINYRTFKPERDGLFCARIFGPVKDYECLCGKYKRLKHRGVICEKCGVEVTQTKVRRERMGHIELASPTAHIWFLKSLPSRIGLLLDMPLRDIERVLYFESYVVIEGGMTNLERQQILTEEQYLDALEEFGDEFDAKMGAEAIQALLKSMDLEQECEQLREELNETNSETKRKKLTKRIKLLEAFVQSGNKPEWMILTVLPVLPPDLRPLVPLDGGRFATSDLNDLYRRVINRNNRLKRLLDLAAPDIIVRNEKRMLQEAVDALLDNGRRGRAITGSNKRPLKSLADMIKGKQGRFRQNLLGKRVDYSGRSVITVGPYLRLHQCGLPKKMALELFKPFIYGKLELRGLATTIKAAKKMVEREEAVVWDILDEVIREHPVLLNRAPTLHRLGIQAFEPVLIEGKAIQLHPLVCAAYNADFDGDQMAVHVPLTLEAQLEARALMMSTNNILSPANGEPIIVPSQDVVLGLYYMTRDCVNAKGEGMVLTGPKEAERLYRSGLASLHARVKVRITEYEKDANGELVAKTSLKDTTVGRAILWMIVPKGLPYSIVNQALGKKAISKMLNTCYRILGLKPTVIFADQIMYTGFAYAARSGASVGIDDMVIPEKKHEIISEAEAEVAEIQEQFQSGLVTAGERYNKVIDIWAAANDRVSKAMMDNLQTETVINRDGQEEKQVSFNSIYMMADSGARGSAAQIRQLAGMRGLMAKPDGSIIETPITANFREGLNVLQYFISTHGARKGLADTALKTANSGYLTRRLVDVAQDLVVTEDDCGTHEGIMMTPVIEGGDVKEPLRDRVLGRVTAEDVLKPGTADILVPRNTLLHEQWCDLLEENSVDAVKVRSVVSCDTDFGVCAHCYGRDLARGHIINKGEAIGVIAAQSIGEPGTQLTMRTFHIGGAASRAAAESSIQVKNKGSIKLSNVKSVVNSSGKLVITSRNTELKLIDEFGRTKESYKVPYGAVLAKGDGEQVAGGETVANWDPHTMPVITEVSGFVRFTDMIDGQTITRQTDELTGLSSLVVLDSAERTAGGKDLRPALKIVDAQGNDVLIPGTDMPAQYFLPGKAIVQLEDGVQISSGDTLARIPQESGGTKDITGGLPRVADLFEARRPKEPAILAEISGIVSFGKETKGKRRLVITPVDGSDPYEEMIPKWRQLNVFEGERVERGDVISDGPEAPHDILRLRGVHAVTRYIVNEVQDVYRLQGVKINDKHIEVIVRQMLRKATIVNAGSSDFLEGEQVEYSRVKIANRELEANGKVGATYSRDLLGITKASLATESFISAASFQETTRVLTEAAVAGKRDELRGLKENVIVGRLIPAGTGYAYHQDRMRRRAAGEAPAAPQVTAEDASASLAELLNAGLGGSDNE
- Sequence (P0A7Z4 whole entry, further chain): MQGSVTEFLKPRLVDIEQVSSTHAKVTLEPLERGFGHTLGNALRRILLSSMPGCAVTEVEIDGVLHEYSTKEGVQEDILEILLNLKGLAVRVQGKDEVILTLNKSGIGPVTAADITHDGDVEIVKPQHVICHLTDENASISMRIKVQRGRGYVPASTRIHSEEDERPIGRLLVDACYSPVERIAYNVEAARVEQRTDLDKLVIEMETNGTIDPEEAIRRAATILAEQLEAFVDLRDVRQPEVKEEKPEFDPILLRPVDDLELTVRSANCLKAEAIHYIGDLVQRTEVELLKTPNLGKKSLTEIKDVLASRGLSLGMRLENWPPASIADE
- PROCEDURE_DETAILS: Fluorescence-detected RNAP assay, Escherichia coli RNAP
- MEASUREMENT_PARAMETERS: fluorescent-detected RNAP assays
*1 amine or outer side, *2 acyl side, *3 side chain or, on linkers, in order; H or OH if unused. Where a SMILES comes first, the peptide text is derived from it. Bridges are numbered along the chain shown (N, C = ends). [ ]: non-standard residue; d: D form. The star is where a group is joined. X4 = C[C@@H](Oc1ccc([C@H](N[*:1])C(=O)[*:2])cc1)[C@](O)(/C=C/C(=O)[*:3])CNCCCCCCNC(=O)OC(C)(C)C; X5 = C[C@@H](Oc1ccc([C@H](N[*:1])C(=O)[*:2])cc1)[C@](O)(/C=C/C(=O)[*:3])CNCCCNC(=O)OC(C)(C)C; X2 = CCCCOC[C@@](O)(/C=C/C(=O)[*:3])[C@@H](C)Oc1ccc([C@H](N[*:1])C(=O)[*:2])cc1; X1 = C[C@@H](Oc1ccc([C@H](N[*:1])C(=O)[*:2])cc1)[C@](O)(/C=C/C(=O)[*:3])CBr; X6 = CCCCOC(/C=C/C(=O)[*:3])(CO)[C@@H](C)Oc1ccc([C@H](N[*:1])C(=O)[*:2])cc1; X3 = C[C@@H](Oc1ccc([C@H](N[*:1])C(=O)[*:2])cc1)[C@](O)(/C=C/C(=O)[*:3])CO; Pentanoyl(2R-Me,3R-OH,4-Me) = CC(C)[C@@H](O)[C@@H](C)C(=O)*; d(aIle) = CC[C@H](C)[C@@H](N)C(=O)O; d(aThr) = C[C@@H](O)[C@@H](N)C(=O)O; NMeF = CN[C@@H](Cc1ccccc1)C(=O)O
QUANTITY_KIND: IC50

{"COMPOUND": "CC[C@H](C)[C@H]1NC(=O)[C@@H](NC(=O)[C@H](C)[C@H](O)C(C)C)[C@@H](C)OC(=O)[C@@H]2COC(=O)CNC(=O)/C=C/[C@](O)(CNCCCCCCNC(=O)OC(C)(C)C)[C@@H](C)Oc3ccc(cc3)[C@H](NC1=O)C(=O)N(C)[C@@H](Cc1ccccc1)C(=O)N[C@H]([C@@H](C)O)C(=O)N2 [Sal-NH(CH2)6NHBoc (9)] ({Pentanoyl(2R-Me,3R-OH,4-Me)}-T[d(aIle)][X4][NMeF][d(aThr)]S; ester 1-C; linker 3-6 via G)", "QUANTITY_KIND": "IC50", "TEST_RESULT": "1000 nM"}
{"COMPOUND": "CCCCOC1(CO)/C=C/C(=O)NCC(=O)OC[C@@H]2NC(=O)[C@@H]([C@@H](C)O)NC(=O)[C@H](Cc3ccccc3)N(C)C(=O)[C@@H](NC(=O)[C@@H]([C@@H](C)CC)NC(=O)[C@@H](NC(=O)[C@H](C)[C@H](O)C(C)C)[C@@H](C)OC2=O)c2ccc(cc2)O[C@@H]1C (stereo partly drawn) [Sal-OBu B (5B)] ({Pentanoyl(2R-Me,3R-OH,4-Me)}-T[d(aIle)][X6][NMeF][d(aThr)]S; ester 1-C; linker 3-6 via G)", "QUANTITY_KIND": "IC50", "TEST_RESULT": "> 25000 nM"}
{"COMPOUND": "CC[C@H](C)[C@H]1NC(=O)[C@@H](NC(=O)[C@H](C)[C@H](O)C(C)C)[C@@H](C)OC(=O)[C@@H]2COC(=O)CNC(=O)/C=C/[C@](O)(CNCCCNC(=O)OC(C)(C)C)[C@@H](C)Oc3ccc(cc3)[C@H](NC1=O)C(=O)N(C)[C@@H](Cc1ccccc1)C(=O)N[C@H]([C@@H](C)O)C(=O)N2 [Sal-NH(CH2)3NHBoc (7)] ({Pentanoyl(2R-Me,3R-OH,4-Me)}-T[d(aIle)][X5][NMeF][d(aThr)]S; ester 1-C; linker 3-6 via G)", "QUANTITY_KIND": "IC50", "TEST_RESULT": "600 nM"}
{"COMPOUND": "CC[C@H](C)[C@H]1NC(=O)[C@@H](NC(=O)[C@H](C)[C@H](O)C(C)C)[C@@H](C)OC(=O)[C@@H]2COC(=O)CNC(=O)/C=C/[C@](O)(CBr)[C@@H](C)Oc3ccc(cc3)[C@H](NC1=O)C(=O)N(C)[C@@H](Cc1ccccc1)C(=O)N[C@H]([C@@H](C)O)C(=O)N2 [Sal-Br (3)] ({Pentanoyl(2R-Me,3R-OH,4-Me)}-T[d(aIle)][X1][NMeF][d(aThr)]S; ester 1-C; linker 3-6 via G)", "QUANTITY_KIND": "IC50", "TEST_RESULT": "3000 nM"}
{"COMPOUND": "CC[C@H](C)[C@H]1NC(=O)[C@@H](NC(=O)[C@H](C)[C@H](O)C(C)C)[C@@H](C)OC(=O)[C@@H]2COC(=O)CNC(=O)/C=C/[C@](O)(CO)[C@@H](C)Oc3ccc(cc3)[C@H](NC1=O)C(=O)N(C)[C@@H](Cc1ccccc1)C(=O)N[C@H]([C@@H](C)O)C(=O)N2 [Sal-OH (4)] ({Pentanoyl(2R-Me,3R-OH,4-Me)}-T[d(aIle)][X3][NMeF][d(aThr)]S; ester 1-C; linker 3-6 via G)", "QUANTITY_KIND": "IC50", "TEST_RESULT": "2000 nM"}
{"COMPOUND": "CCCCOC[C@@]1(O)/C=C/C(=O)NCC(=O)OC[C@@H]2NC(=O)[C@@H]([C@@H](C)O)NC(=O)[C@H](Cc3ccccc3)N(C)C(=O)[C@@H](NC(=O)[C@@H]([C@@H](C)CC)NC(=O)[C@@H](NC(=O)[C@H](C)[C@H](O)C(C)C)[C@@H](C)OC2=O)c2ccc(cc2)O[C@@H]1C [Sal-OBu A (5A)] ({Pentanoyl(2R-Me,3R-OH,4-Me)}-T[d(aIle)][X2][NMeF][d(aThr)]S; ester 1-C; linker 3-6 via G)", "QUANTITY_KIND": "IC50", "TEST_RESULT": "6000 nM"}
